# Tested on: PC3
# PROCEDURE SUMMARY: In vivo play-off phage auditioning, PC3 tumor
# Parameters: species or system prostate carcinoma in athymic nude mice
# CONDITION SET: phage-displayed peptide; equimolar mix, i.v. 1 × 10^10 pfu/mouse, 2 h circulation, perfusion; Ion-Torrent sequencing; mean, N = 3 mice
Documented Representation of phage in tumors, PC3 across a set of substances
Please state the figure in fold G7 control phage; there is no need to write the unit.

Solved entries:
| SUBSTANCE | Representation of phage in tumors, PC3 [fold G7 control phage] |
| --- | --- |
| AGRGRLVRAKLAAALE [Clone-5] | 0.3 |
| GGGGGGG [heptaglycine control phage, reference compound] | 1.0 |
| RRLVRVA [Clone-35] | 0.9 |
| RGRLVRAK [Modified clone-5] | 3.0 |
| VGRVRFSRKLAAALE [Clone-30] | 1.2 |
| AGRGRLVR (left off: T7 phage particle (peptide displayed on it), end not stated, kept) [PL3] | 3.9 |

For this substance ( CSRRGILRAKPAAALE [Clone-4] ), measured Representation of phage in tumors, PC3 is 1.2

For this substance ( AVRGRLRVAKLAAALE [Clone-3] ), measured Representation of phage in tumors, PC3 is 1.0

For this substance ( CRGVLRRAKLAAALE [Clone-2] ), measured Representation of phage in tumors, PC3 is 0.9

* * *

# Test system: P13
# PROCEDURE SUMMARY: In vivo play-off phage auditioning, P13 tumor
# Parameters: species or system P13 glioblastoma in athymic nude mice
# CONDITION SET: phage-displayed peptide; equimolar mix, i.v. 1 × 10^10 pfu/mouse, 2 h circulation, perfusion; Ion-Torrent sequencing; mean, N = 3 mice
OBSERVABLE: Representation of phage in tumors, P13 (fold G7 control phage)
Please state the figure in fold G7 control phage; there is no need to write the unit.

| SUBSTANCE | Representation of phage in tumors, P13 [fold G7 control phage] |
| --- | --- |
| RGRLVRAK [Modified clone-5] | 0.1 |
| AGRGRLVRAKLAAALE [Clone-5] | 0.1 |
| GRLTRVR [Clone-46] | 0.5 |
| GGGGGGG [heptaglycine control phage, reference compound] | 1.0 |
| RRLVRVA [Clone-35] | 0.4 |

For this substance ( CRGVLRRAKLAAALE [Clone-2] ), measured Representation of phage in tumors, P13 is 0.4

For this substance ( AVRGRLRVAKLAAALE [Clone-3] ), measured Representation of phage in tumors, P13 is 0.6

For this substance ( AGVGRLRRAKLAAALE [Clone-1] ), measured Representation of phage in tumors, P13 is 0.9

For this substance ( CSRRGILRAKPAAALE [Clone-4] ), measured Representation of phage in tumors, P13 is 0.8

For this substance ( RGRLVRA [Clone-45] ), measured Representation of phage in tumors, P13 is 0.4

For this substance ( AGRGRLVR (left off: T7 phage particle (peptide displayed on it), end not stated, kept) [PL3] ), measured Representation of phage in tumors, P13 is 4.7

For this substance ( CAGRGRLVRC [Modified clone-5] ), measured Representation of phage in tumors, P13 is 0.4

For this substance ( VGRVRFSRKLAAALE [Clone-30] ), measured Representation of phage in tumors, P13 is 0.5

* * *

# System: PC3
# PROCEDURE SUMMARY: In vivo play-off phage auditioning, PC3 tumor
# Design: species or system prostate carcinoma in athymic nude mice
# CONDITION SET: phage-displayed peptide; equimolar mix, i.v. 1 × 10^10 pfu/mouse, 2 h circulation, perfusion; Ion-Torrent sequencing; mean, N = 3 mice
OBSERVABLE: Representation of phage in tumors, PC3 (fold G7 control phage)
Please state the figure in fold G7 control phage; there is no need to write the unit.

Solved entries:
| SUBSTANCE | Representation of phage in tumors, PC3, fold G7 control phage |
| --- | --- |
| GRLTRVR [Clone-46] | 0.9 |
| CAGRGRLVRC [Modified clone-5] | 0.4 |
| RGRLVRA [Clone-45] | 1.8 |

Turning now to a further record.
For this substance ( AGVGRLRRAKLAAALE [Clone-1] ), measured Representation of phage in tumors, PC3 is 1.4
